# Species on record: Rattus norvegicus
# PROTOCOL_DETAILS: Open TG-GATES - Regimen: Daily Repeat
# Type: toxicity, organism-based, Sprague-Dawley
# Set-up: regimen Daily Repeat, gender Male, age 6 weeks
# CONDITION_INFO: in vivo, po, 0 mg/kg, […], tissue Plasma, route gavage, dose level Control, time 14 day
READOUT: BUN (mg/dL)
Reply numerically in mg/dL, unit not repeated.

Just so you know, measured BUN for CC(CCc1ccccc1)NCC(O)c1ccc(O)c(C(N)=O)c1 (stereo not drawn) came out at 15.2

Just so you know, measured BUN for CCN(CC)N=O came out at 15

Just so you know, measured BUN for CC(=O)N1CCN(c2ccc(OCC3COC(Cn4ccnc4)(c4ccc(Cl)cc4Cl)O3)cc2)CC1 (stereo not drawn) came out at 19

Just so you know, measured BUN for O=C(O)COc1nn(Cc2ccccc2)c2ccccc12 came out at 18.2

Just so you know, measured BUN for CC(C)Cc1ccc(C(C)C(=O)O)cc1 (stereo not drawn) came out at 19.2

Just so you know, measured BUN for CC[C@@H](CO)NCCN[C@@H](CC)CO came out at 19.6

Just so you know, measured BUN for CC(N)=O [ACETAMIDE] came out at 17.9

Just so you know, measured BUN for CC(=O)Nc1ccc2c(c1)Cc1ccccc1-2 came out at 15.4

----------
# Organism: Rattus norvegicus
# PROTOCOL_DETAILS: Open TG-GATES - Regimen: Single
# Format: toxicity, organism-based, Sprague-Dawley
# Design: regimen Single, gender Male, age 6 weeks
# CONDITION_INFO: in vivo, po, 0 mg/kg, 6 h, tissue Plasma, route gavage, dose level Control
READOUT: GLC (mg/dL)
Reply numerically in mg/dL, unit not repeated.

Just so you know, measured GLC for CC(CCc1ccccc1)NCC(O)c1ccc(O)c(C(N)=O)c1 (configuration not stated) came out at 170.2

Just so you know, measured GLC for CCN(CC)N=O came out at 201.2

Just so you know, measured GLC for CC(C)Cc1ccc(C(C)C(=O)O)cc1 (configuration not stated) came out at 178

Just so you know, measured GLC for CC(=O)Nc1ccc2c(c1)Cc1ccccc1-2 came out at 196

Just so you know, measured GLC for O=C(O)COc1nn(Cc2ccccc2)c2ccccc12 came out at 186.8

Just so you know, measured GLC for CC(=O)N1CCN(c2ccc(OCC3COC(Cn4ccnc4)(c4ccc(Cl)cc4Cl)O3)cc2)CC1 (configuration not stated) came out at 176.8

Just so you know, measured GLC for CC[C@@H](CO)NCCN[C@@H](CC)CO came out at 200.4

----------
# Species: Rattus norvegicus
# PROTOCOL_DETAILS: Open TG-GATES - Regimen: Single
# Assay type: toxicity, organism-based, Sprague-Dawley
# Set-up: regimen Single, gender Male, age 6 weeks
# CONDITION_INFO: in vivo, po, 0 mg/kg, 3 h, tissue Plasma, route gavage, dose level Control
READOUT: CRE (mg/dL)
Reply numerically in mg/dL, unit not repeated.

Just so you know, measured CRE for CC[C@@H](CO)NCCN[C@@H](CC)CO came out at 0.2

Just so you know, measured CRE for CC(=O)Nc1ccc2c(c1)Cc1ccccc1-2 came out at 0.4

Just so you know, measured CRE for CC(C)Cc1ccc(C(C)C(=O)O)cc1 (configuration not stated) came out at 0.2

Just so you know, measured CRE for O=C(O)COc1nn(Cc2ccccc2)c2ccccc12 came out at 0.5

Just so you know, measured CRE for CC(CCc1ccccc1)NCC(O)c1ccc(O)c(C(N)=O)c1 (configuration not stated) came out at 0.2

Just so you know, measured CRE for CCN(CC)N=O came out at 0.4

Just so you know, measured CRE for CC(=O)N1CCN(c2ccc(OCC3COC(Cn4ccnc4)(c4ccc(Cl)cc4Cl)O3)cc2)CC1 (configuration not stated) came out at 0.2

----------
# Organism: Rattus norvegicus
# PROTOCOL_DETAILS: Open TG-GATES - Regimen: Daily Repeat
# Type: toxicity, organism-based, Sprague-Dawley
# Parameters: regimen Daily Repeat, gender Male, age 6 weeks
# CONDITION_INFO: in vivo, po, 0 mg/kg, […], tissue Kidney, route gavage, dose level Control, time 14 day
READOUT: KIDNEY_L (g)
Reply numerically in g, unit not repeated.

Just so you know, measured KIDNEY_L for CCN(CC)N=O came out at 1.3

Just so you know, measured KIDNEY_L for CC(N)=O [ACETAMIDE] came out at 1.3

Just so you know, measured KIDNEY_L for CC[C@@H](CO)NCCN[C@@H](CC)CO came out at 1.3

Just so you know, measured KIDNEY_L for CC(=O)Nc1ccc2c(c1)Cc1ccccc1-2 came out at 1.3

Just so you know, measured KIDNEY_L for CC(CCc1ccccc1)NCC(O)c1ccc(O)c(C(N)=O)c1 (stereo not drawn) came out at 1.3

Just so you know, measured KIDNEY_L for CC(C)Cc1ccc(C(C)C(=O)O)cc1 (stereo not drawn) came out at 1.2

Just so you know, measured KIDNEY_L for O=C(O)COc1nn(Cc2ccccc2)c2ccccc12 came out at 1.3

Just so you know, measured KIDNEY_L for CC(=O)N1CCN(c2ccc(OCC3COC(Cn4ccnc4)(c4ccc(Cl)cc4Cl)O3)cc2)CC1 (stereo not drawn) came out at 1.1

----------
# Species on record: Rattus norvegicus
# PROTOCOL_DETAILS: Open TG-GATES - Regimen: Single
# Format: toxicity, organism-based, Sprague-Dawley
# Parameters: regimen Single, gender Male, age 6 weeks
# CONDITION_INFO: in vivo, po, 0 mg/kg, 3 h, tissue Kidney, route gavage, dose level Control
Give KIDNEY_L for every item shown.
Reply numerically in g, unit not repeated.

Just so you know, measured KIDNEY_L for CC[C@@H](CO)NCCN[C@@H](CC)CO came out at 1

Just so you know, measured KIDNEY_L for CC(C)Cc1ccc(C(C)C(=O)O)cc1 (configuration not stated) came out at 0.9

Just so you know, measured KIDNEY_L for CCN(CC)N=O came out at 1

Just so you know, measured KIDNEY_L for CC(=O)Nc1ccc2c(c1)Cc1ccccc1-2 came out at 1

Just so you know, measured KIDNEY_L for CC(=O)N1CCN(c2ccc(OCC3COC(Cn4ccnc4)(c4ccc(Cl)cc4Cl)O3)cc2)CC1 (configuration not stated) came out at 0.9

Just so you know, measured KIDNEY_L for CC(CCc1ccccc1)NCC(O)c1ccc(O)c(C(N)=O)c1 (configuration not stated) came out at 0.9

Just so you know, measured KIDNEY_L for O=C(O)COc1nn(Cc2ccccc2)c2ccccc12 came out at 0.9

----------
# Species: Rattus norvegicus
# PROTOCOL_DETAILS: Open TG-GATES - Regimen: Daily Repeat
# Format: toxicity, organism-based, Sprague-Dawley
# Set-up: regimen Daily Repeat, gender Male, age 6 weeks
# CONDITION_INFO: in vivo, po, 0 mg/kg, 72 h, tissue Kidney, route gavage, dose level Control, time 3 day
READOUT: KIDNEY_R (g)
Reply numerically in g, unit not repeated.

Just so you know, measured KIDNEY_R for CC[C@@H](CO)NCCN[C@@H](CC)CO came out at 1.1

Just so you know, measured KIDNEY_R for O=C(O)COc1nn(Cc2ccccc2)c2ccccc12 came out at 1

Just so you know, measured KIDNEY_R for CC(N)=O [ACETAMIDE] came out at 1

Just so you know, measured KIDNEY_R for CCN(CC)N=O came out at 1

Just so you know, measured KIDNEY_R for CC(=O)N1CCN(c2ccc(OCC3COC(Cn4ccnc4)(c4ccc(Cl)cc4Cl)O3)cc2)CC1 (stereo not drawn) came out at 1.1

Just so you know, measured KIDNEY_R for CC(C)Cc1ccc(C(C)C(=O)O)cc1 (stereo not drawn) came out at 1

Just so you know, measured KIDNEY_R for CC(=O)Nc1ccc2c(c1)Cc1ccccc1-2 came out at 1.1

Just so you know, measured KIDNEY_R for CC(CCc1ccccc1)NCC(O)c1ccc(O)c(C(N)=O)c1 (stereo not drawn) came out at 1.1

----------
# Species: Rattus norvegicus
# PROTOCOL_DETAILS: Open TG-GATES - Regimen: Single
# Assay type: toxicity, organism-based, Sprague-Dawley
# Parameters: regimen Single, gender Male, age 6 weeks
# CONDITION_INFO: in vivo, po, 0 mg/kg, 6 h, tissue Blood, route gavage, dose level Control
READOUT: MCV (fL)
Reply numerically in fL, unit not repeated.

Just so you know, measured MCV for CC(CCc1ccccc1)NCC(O)c1ccc(O)c(C(N)=O)c1 (configuration not stated) came out at 63.9

Just so you know, measured MCV for O=C(O)COc1nn(Cc2ccccc2)c2ccccc12 came out at 64.7

Just so you know, measured MCV for CC(C)Cc1ccc(C(C)C(=O)O)cc1 (configuration not stated) came out at 63.8

Just so you know, measured MCV for CC[C@@H](CO)NCCN[C@@H](CC)CO came out at 63.8

Just so you know, measured MCV for CC(=O)N1CCN(c2ccc(OCC3COC(Cn4ccnc4)(c4ccc(Cl)cc4Cl)O3)cc2)CC1 (configuration not stated) came out at 64.7

Just so you know, measured MCV for CC(=O)Nc1ccc2c(c1)Cc1ccccc1-2 came out at 63.1

Just so you know, measured MCV for CCN(CC)N=O came out at 62.5
